Every entry's value here was drawn from the RNAGym collection of RNA variant scans (doi:10.1126/science.aae0568).

B1: tRNA (parent)
chain: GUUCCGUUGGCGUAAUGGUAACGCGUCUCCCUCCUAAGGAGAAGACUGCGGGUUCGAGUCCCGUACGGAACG

Variants of: B1
test-summary: yeast fitness relative to wild type (ratio to wild type); higher = fitter; tRNA-Arg(CCU), competitive growth, 37 C, YPD
Variants at the floor of the assay were thinned out.
Please provide measured yeast fitness for the entries that follow.

Ask: For the variant A36G U54A C60G , give its measured yeast fitness value.
Reply: ≤ 0.5

Ask: For the variant C11U C27G A43U , give its measured yeast fitness value.
Reply: 0.52

Ask: For the variant U3A C31U A40C A70G , give its measured yeast fitness value.
Reply: ≤ 0.5

Ask: For the variant C4A A65G A69U , give its measured yeast fitness value.
Reply: 0.617

Ask: For the variant U26C G56C , give its measured yeast fitness value.
Reply: 0.697

Ask: For the variant A14G G18A , give its measured yeast fitness value.
Reply: 0.63

Ask: For the variant A20G C34A , give its measured yeast fitness value.
Reply: 0.69

Ask: For the variant G23A A40U A70G , give its measured yeast fitness value.
Reply: 0.537

Ask: For the variant C5A U7A A21G G67C , give its measured yeast fitness value.
Reply: 0.541

Ask: For the variant A21G C33A C55A A65C A70C , give its measured yeast fitness value.
Reply: ≤ 0.5

Ask: For the variant G6C C24U A65C , give its measured yeast fitness value.
Reply: ≤ 0.5

Ask: For the variant C24A A43C , give its measured yeast fitness value.
Reply: 0.55

Ask: For the variant C4U G41C G48A C61A , give its measured yeast fitness value.
Reply: ≤ 0.5

Ask: For the variant A15U A37G , give its measured yeast fitness value.
Reply: 0.66

Ask: For the variant A21U C22A C29G C55A U59C , give its measured yeast fitness value.
Reply: 0.647

Ask: For the variant C4A A20U , give its measured yeast fitness value.
Reply: 0.707

Ask: For the variant C30A C61U A65U , give its measured yeast fitness value.
Reply: ≤ 0.5

Ask: For the variant C22U C24U C33G , give its measured yeast fitness value.
Reply: 0.502

Ask: For the variant G23A C66U , give its measured yeast fitness value.
Reply: 0.824

Ask: For the variant C22A C55U , give its measured yeast fitness value.
Reply: 0.918

Ask: For the variant A21C C33G G39A , give its measured yeast fitness value.
Reply: ≤ 0.5

Ask: For the variant A42U G63A G68C A69C , give its measured yeast fitness value.
Reply: ≤ 0.5
